From: the RNAGym collection of RNA variant scans (doi:10.7554/elife.80360)

Listed here: items and their measured self-cleavage.
B1: CPEB3 Ribozyme (parent)
chain: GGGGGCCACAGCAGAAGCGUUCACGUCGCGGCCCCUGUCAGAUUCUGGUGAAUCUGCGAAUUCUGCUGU

Variants of: B1
Assay: self-cleavage, relative activity (ratio to wild type); higher = more cleavage; co-transcriptional

| variant_name | self-cleavage |
| --- | --- |
| G3A G5A | 0.101 |
| C6U A16G | 0.986 |
| C7U C39A | 0.686 |
| G31A C33A | 0.266 |
| C33U G56C | 0.849 |
| G2A U69A | 0.256 |
| G1C C54G | 0.321 |
| G14C U49A | 0.712 |
| A42U A51C | 0.839 |
| U44A G65U | 0.588 |
| U44G A51C | 0.966 |
| C6U A40U | 0.835 |
| G2A A59G | 0.129 |
| A40U U55G | 0.839 |
| A60G U67G | 0.902 |
| U21A C57A | 0.268 |
| C32A C45G | 0.667 |
| G19A C24G | 0.159 |
| G19A A52U | 0.156 |
| G30U C33G | 0.192 |
| G3A G56U | 0.467 |
| C39A A51C | 0.654 |
| G17C A60G | 0.127 |
| U21C G48U | 0.901 |
| U38C U55C | 0.556 |
| C18U C27U | 0.121 |
| U46C G65A | 0.893 |
| A51C U67A | 0.961 |
| U49C U67A | 0.946 |
| C22G U53C | 0.184 |
| G48U U64C | 0.876 |
| G11C A16G | 0.471 |
| C39U C63U | 0.84 |
| C18A U38A | 0.0704 |
| C45A C54U | 0.926 |
| A8C U61C | 0.776 |
| G25U C57G | 0.151 |
| G1A U64A | 0.134 |
| A8C G65U | 0.676 |
| G11C U49A | 0.882 |
| G17A C29A | 0.572 |
| G48A C66A | 0.877 |
| G56A U67A | 0.927 |
| U38A A60G | 0.563 |
| G30U U44C | 0.364 |
| G11C U55C | 0.243 |
| G5U C12U | 0.188 |
| G1U G58C | 0.128 |
| C32A G56A | 0.674 |
| G30A U49G | 0.674 |
| A52U U67C | 0.915 |
| G47U A59G | 1 |
| U20A C57U | 0.152 |
| G19U U64G | 0.192 |
| U55A C66U | 0.944 |
| C22A A52G | 0.214 |
| U55A G65A | 0.581 |
| C39A C54G | 0.427 |
| U21G A51G | 0.54 |
| A15C C18G | 0.0508 |
| U20G U36A | 0.13 |
| G25A C29A | 0.181 |
| G14U G48A | 0.893 |
| C45A G58C | 1.02 |
| U61C U69G | 0.974 |
| G41C U44G | 0.317 |
| C6G A40U | 0.0791 |
| C35U U36A | 0.212 |
| G14A G47U | 0.889 |
| C35U U49G | 0.909 |
| G1A C54A | 0.0906 |
| C34G G47A | 0.769 |
| G11U A42C | 0.342 |
| A23G C54U | 0.964 |
| G4U A40G | 0.542 |
| C7U U21G | 0.34 |
| C22U C24U | 0.105 |
| U20A G25U | 0.135 |
| U38C A51C | 0.87 |
| C6U U44C | 0.933 |
| A16G A23C | 0.928 |
| C6G C63U | 0.262 |
| C57A U61C | 0.273 |
| C12A A59U | 0.343 |
| C6A U46A | 0.674 |
| G1U G48C | 0.0782 |
| G2A G50A | 0.177 |
| C33U U64C | 0.92 |
| G1U G3C | 0.0566 |
| G11A G17U | 0.142 |
| G58C G68C | 0.963 |
